- EXPERIMENTAL SYSTEM: human 5-HT6 receptor (Homo sapiens, UniProt P50406)
- Construct: host or cells: CHO-K1 cells, stably transfected; membranes prepared in house
- Sequence (P50406 whole entry): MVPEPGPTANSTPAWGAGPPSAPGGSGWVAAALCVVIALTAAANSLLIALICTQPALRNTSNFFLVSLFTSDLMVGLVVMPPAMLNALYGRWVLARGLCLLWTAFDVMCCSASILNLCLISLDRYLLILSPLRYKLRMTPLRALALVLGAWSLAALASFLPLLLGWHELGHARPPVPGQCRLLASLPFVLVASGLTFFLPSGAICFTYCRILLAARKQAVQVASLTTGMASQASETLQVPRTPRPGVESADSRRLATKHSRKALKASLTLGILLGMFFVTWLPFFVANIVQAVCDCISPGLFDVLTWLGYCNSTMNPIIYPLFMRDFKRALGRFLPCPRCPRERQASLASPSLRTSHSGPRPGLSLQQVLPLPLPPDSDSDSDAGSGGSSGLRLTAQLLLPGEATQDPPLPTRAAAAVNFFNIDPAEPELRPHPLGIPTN
- ASSAY COMMENT: Human 5-HT6 Receptor Binding Assay ([3H]LSD displacement, scintillation beads)
- PARTICULARS: membranes of CHO-K1 cells with recombinant human 5-HT6, 4 nM [3H]LSD; Table 1, class symbols; read-out: h5-HT6 (Ki)

COMPOUND | Ki
CC1OCCC12NCCc1c2oc2cc(S(=O)(=O)c3cccc(F)c3)ccc12 (single isomer, unassigned) [Example 58] | < 500 nM
CC12CCNCC1Oc1ccc(OS(=O)(=O)c3ccc(Cl)cc3)cc12 (centres unmarked) | > 1000 nM
O=S(=O)(c1ccc2c(c1)OC1CNCCC21)c1cccc(F)c1F (centres unmarked) [Example 411] | < 500 nM
CN(Cc1ccccc1)S(=O)(=O)c1ccc2c(c1)C1CCNCC1O2 (centres unmarked) | > 1000 nM
[O-][S+](c1ccc(OC(F)(F)F)cc1)c1ccc2c3c(oc2c1)CNCC3 (centres unmarked) | > 1000 nM
CC(C)Oc1cc(F)cc(S(=O)(=O)c2ccc3c(c2)OC2CNCCC32)c1 (centres unmarked) [Example 417] | < 500 nM
O=S(=O)(c1ccccc1)c1ccc2c3c([nH]c2c1)C1(CCOC1)NCC3 (centres unmarked) | < 500 nM
CC(=O)Nc1ccc(S(=O)(=O)c2ccc3oc4c(c3c2)CCNC4)cc1 | 500 to 1000 nM
O=S(=O)(c1ccccc1)c1ccc2c3c(oc2c1)C1(CCCOC1)NCC3 (single isomer, unassigned) [Example 543] | < 500 nM
CC1(C)CNC2(CCOC2)c2oc3cc(S(=O)(=O)c4cccc(F)c4)ccc3c21 (racemic) | < 500 nM
CC(C)Oc1cccc(S(=O)(=O)c2ccc3c4c(oc3c2)C(C)(C)NCC4)c1 | < 500 nM
O=S(=O)(c1ccccc1)c1ccc2c3c(oc2c1)CN(Cc1ccccc1)CC3 | 500 to 1000 nM
CC12CCNCC1Oc1ccc(S(=O)(=O)c3cccc(Cl)c3Cl)cc12 (centres unmarked) [Example 106] | < 500 nM
CC12CCNCC1Oc1cc(S(=O)(=O)c3cccc4c3OCCO4)ccc12 (centres unmarked) | < 500 nM
COc1cccc(S(=O)(=O)c2ccc3c4c(oc3c2)CNCC4)c1 | < 500 nM
CC(C)(C)c1ccc(S(=O)(=O)Oc2ccc3c(c2)C2CCNCC2O3)cc1 (centres unmarked) | 500 to 1000 nM
CC1(C)NCCc2c1oc1cc(S(=O)(=O)c3cccnc3C(F)(F)F)ccc21 | < 500 nM
CC(=O)N(C)CC1NCCc2c1oc1cc(S(=O)(=O)c3cccc(F)c3)ccc21 (racemic) | < 500 nM
[O-][S+](c1ccc2c(c1)OC1CNCCC21)c1cc(F)ccc1F (centres unmarked) | > 1000 nM
Cc1ccc(F)cc1S(=O)(=O)c1ccc2c(c1)OC1CNCCC21 (centres unmarked) | < 500 nM

----------
- EXPERIMENTAL SYSTEM: human 5-HT6 receptor (Homo sapiens, UniProt P50406)
- Construct: host or cells: CHO-K1 cells, stably transfected; membranes prepared in house
- ASSAY COMMENT: Human 5-HT6 Receptor Binding Assay ([3H]LSD displacement, scintillation beads)
- PARTICULARS: membranes of CHO-K1 cells with recombinant human 5-HT6, 4 nM [3H]LSD; Table 1, class symbols; read-out: h5-HT6 (Ki)
pKi: −log10 of the molar value.
Reported pKi values for a set of molecules

MOLECULE | EXPERIMENTAL SYSTEM | pKi
O=S(=O)(Oc1ccc2c(c1)C1CCNCC1O2)c1ccccc1C(F)(F)F (stereo not drawn) | human 5-HT6 receptor (Homo sapiens, UniProt P50406) | < 6.00
COC(=O)c1cccc(S(=O)(=O)c2ccc3c4c(oc3c2)CNCC4)c1 | human 5-HT6 receptor (Homo sapiens, UniProt P50406) | > 6.30
O=S(=O)(c1cc(F)cc(F)c1)c1ccc2c(c1)OC1CNCCC21 (stereo not drawn) [Example 164] | human 5-HT6 receptor (Homo sapiens, UniProt P50406) | > 6.30
